These entries and their values trace back to patent US20220162293A1.

# target: T1, BSA (bovine, UniProt P02769 25-607)
# T1 construct: Carrier protein used as negative screening antigen; also called bovine serum albumin
# T1 sequence (P02769 25-607 limits assumed): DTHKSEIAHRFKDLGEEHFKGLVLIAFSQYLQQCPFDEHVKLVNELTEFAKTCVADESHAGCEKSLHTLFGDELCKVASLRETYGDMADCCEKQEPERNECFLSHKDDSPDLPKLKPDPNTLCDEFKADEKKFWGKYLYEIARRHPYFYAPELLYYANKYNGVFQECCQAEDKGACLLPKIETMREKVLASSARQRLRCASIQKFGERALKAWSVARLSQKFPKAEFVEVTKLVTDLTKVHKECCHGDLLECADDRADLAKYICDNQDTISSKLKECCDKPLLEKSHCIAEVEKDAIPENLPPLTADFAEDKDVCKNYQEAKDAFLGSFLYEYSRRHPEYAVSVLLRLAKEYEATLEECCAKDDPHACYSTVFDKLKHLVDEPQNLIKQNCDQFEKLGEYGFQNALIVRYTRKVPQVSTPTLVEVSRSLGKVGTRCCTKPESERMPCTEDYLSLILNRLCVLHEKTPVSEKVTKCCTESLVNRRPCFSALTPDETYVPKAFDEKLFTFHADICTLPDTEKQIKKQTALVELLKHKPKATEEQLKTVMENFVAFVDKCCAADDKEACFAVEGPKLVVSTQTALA
# runDescription: screen of hybridoma supernatants

binder	binding result
6C5 (antibody, V domains shown, IgG1, kappa; also called Antibody 6C5) VH: EVKLVESGGGLVQPGGSLKLSCATSGFTFSDYYMYWVRQTPEKRLEWVAYISNGGGSTYYPDTVKGRFTISRDNAKNTLYLQMSRLKSEDTAMYYCAREGGTAWFAYWGQGTLVTVSA VL: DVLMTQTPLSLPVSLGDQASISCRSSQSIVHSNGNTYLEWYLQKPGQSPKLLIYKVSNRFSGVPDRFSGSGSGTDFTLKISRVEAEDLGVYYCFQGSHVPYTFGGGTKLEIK	no binding
11F3 (antibody, V domains shown, IgG1, kappa; also called clone 11F3; antibody 3) VH: QIQLVQSGPELKKPGETVKISCKASGYTFTDYSMHWVKHSPGKGLKWMGWINTETGEPTYADDFKGRFAFSLETSASTAYLQINNLKNEDTATYFCARGYGNWFAYWGQGTLVTVSA VL: QIVLTQSPAIMSASLGERVTMTCTASSSVSSSYLHWYQQKPGSSPKLWIYSTSNLASGVPARFSGSGSGTSYSLTISSMEAEDAATYYCHQYHRSPLTFGAGTKLELK	no binding
9C5 (antibody, V domains shown, IgG3, kappa; also called clone 9C5; antibody 6) VH: EVQLVESGGGLVKPGGSLKLSCAASGFTFSDYYMYWVRQTPEKRLEWVATISDGGSYTSYPDSVKGRFTISRDNAKNNLYLQMSSLRSEDTAMYYCARDYYGSSSYTSGFAYWGQGTLVTVSA VL: DVLMTQTPLSLPVSLGDQASISCRSSQSIVHSNGNTYLEWYLQKPGQSPKLLIYKVSNRFSGVPDRFSGSGSGTDFTLKISRVEAEDLGVYYCFQGSHVPGTFGGGTKLEIK	no binding
